Item-by-item account of melting point

In [3]: df
Out[3]:
                                     smiles  reported_endpoint             result
0  COc1ccc(NC(=O)[C@H]2O[C@@H]2C(=O)N(Cc2ccccc2)c2ccccc2)cc1OC      melting point  156.5 to 157.2 °C
1  Cc1c(Cl)cccc1NC(=O)[C@H]1O[C@@H]1C(=O)N(Cc1ccccc1)c1ccccc1      melting point  119.4 to 120.2 °C

Now consider the entry below.
Please give the measured melting point for this compound: `O=C(Nc1nc2ccccc2s1)c1ccc(N(Cc2ccc(F)cc2)C(=O)[C@H]2O[C@@H]2C(=O)Nc2cccc(Cl)c2)cc1` 209.8 to 210.3 °C

----------
- Tested on: enterovirus EV71 (BrCr strain)
- procedure-details: Activity screening for anti-enterovirus EV71: inhibition of cytopathic effect in Vero cells
- Type: cell-based
- conditions: Vero cells
reported-endpoint: SI (Selectivity Index = TC50/IC50)
Respond numerically, and do not add a unit to the figure.

Solved entries (count: 2):
                                   compound                    assay_target  result
0  O=C(Nc1cccc(Br)c1)[C@H]1O[C@@H]1C(=O)N(Cc1ccccc1)c1ccccc1 [Compound 14]  enterovirus EV71 (BrCr strain)    8.97
1  O=C(Nc1nc2ccccc2s1)c1ccc(N(Cc2ccc(F)cc2)C(=O)[C@H]2O[C@@H]2C(=O)Nc2cccc(F)c2)cc1 [Compound 30]  enterovirus EV71 (BrCr strain)    3.97

Any idea what SI (Selectivity Index = TC50/IC50) came out for O=C(Nc1ccc([N+](=O)[O-])cc1)[C@H]1O[C@@H]1C(=O)N(Cc1ccccc1)c1ccccc1 [Compound 9] on enterovirus EV71 (BrCr strain)? 5.22

Any idea what SI (Selectivity Index = TC50/IC50) came out for COc1cccc(NC(=O)[C@H]2O[C@@H]2C(=O)N(Cc2ccccc2)c2ccccc2)c1 [Compound 7] on enterovirus EV71 (BrCr strain)? 15.85

Any idea what SI (Selectivity Index = TC50/IC50) came out for O=C(Nc1ccccc1Cl)[C@H]1O[C@@H]1C(=O)N(Cc1ccccc1)c1ccccc1 [Compound 11] on enterovirus EV71 (BrCr strain)? 9.53

Any idea what SI (Selectivity Index = TC50/IC50) came out for O=C(Nc1nccs1)[C@H]1O[C@@H]1C(=O)N(Cc1ccccc1)c1ccccc1 [Compound 2] on enterovirus EV71 (BrCr strain)? 4.32

Any idea what SI (Selectivity Index = TC50/IC50) came out for O=C(Nc1cccc(Cl)c1Cl)[C@H]1O[C@@H]1C(=O)N(Cc1ccccc1)c1ccccc1 [Compound 10] on enterovirus EV71 (BrCr strain)? 9.53

Any idea what SI (Selectivity Index = TC50/IC50) came out for O=C(Nc1cccc(Cl)c1)[C@H]1O[C@@H]1C(=O)N(Cc1ccccc1)c1ccccc1 [Compound 8] on enterovirus EV71 (BrCr strain)? 15.85

Any idea what SI (Selectivity Index = TC50/IC50) came out for CCOC(=O)c1ccc(OCCC2CCN(c3ccc(C)nn3)CC2)cc1 [Pirodavir, reference compound] on enterovirus EV71 (BrCr strain)? 4.81

Any idea what SI (Selectivity Index = TC50/IC50) came out for O=C(Nc1ccc(F)cc1)[C@H]1O[C@@H]1C(=O)N(Cc1ccccc1)c1ccccc1 [Compound 5] on enterovirus EV71 (BrCr strain)? 4.32

----------
reported-endpoint: melting point

Solved entries (count: 5):
>>> df
                                     smiles  reported_endpoint             result
0  COc1cccc(NC(=O)[C@H]2O[C@@H]2C(=O)N(Cc2ccc(F)cc2)c2ccc(C(=O)Nc3nc4ccccc4s3)cc2)c1      melting point  223.1 to 224.1 °C
1  COc1ccc(NC(=O)[C@H]2O[C@@H]2C(=O)N(Cc2ccccc2)c2ccc(C(=O)Nc3nc4ccccc4s3)cc2)cc1OC      melting point    224.5 to 226 °C
2  O=C(Nc1nc2ccccc2s1)c1ccc(N(Cc2ccc(F)cc2)C(=O)[C@H]2O[C@@H]2C(=O)Nc2ccc(F)c(F)c2)cc1      melting point  219.2 to 219.7 °C
3  O=C(Nc1nc2ccccc2s1)c1ccc(N(Cc2ccc(F)cc2)C(=O)[C@H]2O[C@@H]2C(=O)O)cc1      melting point  200.6 to 201.3 °C
4  O=C(Nc1ccccc1Cl)[C@H]1O[C@@H]1C(=O)N(Cc1ccccc1)c1ccccc1      melting point  117.3 to 118.2 °C

Please give the measured melting point for this compound: `COc1cccc(NC(=O)[C@H]2O[C@@H]2C(=O)N(Cc2ccccc2)c2ccccc2)c1` 130.7 to 131.7 °C

Please give the measured melting point for this compound: `O=C(Nc1ccccc1F)[C@H]1O[C@@H]1C(=O)N(Cc1ccccc1)c1ccccc1` 139.2 to 140.3 °C

----------
Item-by-item account of TC50 (half toxic concentration for Vero cells)
- Test system: Vero cells
- procedure-details: Cytotoxicity of the compounds for Vero cells (CPE observation, TC50)
- Format: cell-based
- conditions: no virus
- Procedure: 2. Sample treatment: the compounds of the present invention are dissolved in DMSO or diluent to prepare stock solution which is stored at −20° C. […] 4. […] The half toxic concentration (TC50) of each sample for Vero cells is calculated. […] The half inhibitory concentration (IC50) of each sample for enterovirus EV71 are calculated. Selectivity Index (SI) is calculated according to the following equation: SI=TC50/IC50.
Record the value in µg/mL, omitting the unit from your answer.

Solved entries (count: 3):
>>> print(df.to_string())
                                   molecule  assay_target  result
0  O=C(Nc1cccc(Br)c1)[C@H]1O[C@@H]1C(=O)N(Cc1ccccc1)c1ccccc1 [Compound 14]    Vero cells   12.83
1  O=C(Nc1nc2ccccc2s1)c1ccc(N(Cc2ccccc2)C(=O)[C@H]2O[C@@H]2C(=O)O)cc1 [Compound 38]    Vero cells  115.47
2  O=C(Nc1nccs1)[C@H]1O[C@@H]1C(=O)N(Cc1ccccc1)c1ccccc1 [Compound 2]    Vero cells   10.68

Please give the measured TC50 (half toxic concentration for Vero cells) for this molecule: COc1cccc(NC(=O)[C@H]2O[C@@H]2C(=O)N(Cc2ccccc2)c2ccccc2)c1 [Compound 7] 4.28

Please give the measured TC50 (half toxic concentration for Vero cells) for this molecule: Cc1c(Cl)cccc1NC(=O)[C@H]1O[C@@H]1C(=O)N(Cc1ccc(F)cc1)c1ccc(C(=O)Nc2nc3ccccc3s2)cc1 [Compound 28] 0.82

Please give the measured TC50 (half toxic concentration for Vero cells) for this molecule: COc1cccc(NC(=O)[C@H]2O[C@@H]2C(=O)N(Cc2ccc(F)cc2)c2ccc(C(=O)Nc3nc4ccccc4s3)cc2)c1 [Compound 21] 1.19

Please give the measured TC50 (half toxic concentration for Vero cells) for this molecule: COc1ccc(NC(=O)[C@H]2O[C@@H]2C(=O)N(Cc2ccc(F)cc2)c2ccc(C(=O)Nc3nc4ccccc4s3)cc2)cc1OC [Compound 17] 115.47

----------
- Tested on: Vero cells
- procedure-details: Cytotoxicity of the compounds for Vero cells (CPE observation, TC50)
- Type: cell-based
- conditions: no virus
reported-endpoint: TC50 (half toxic concentration for Vero cells) (µg/mL)
Record the value in µg/mL, omitting the unit from your answer.

Solved entries (count: 2):
>>> df
                                     smiles  result
0  COc1ccc(NC(=O)[C@H]2O[C@@H]2C(=O)N(Cc2ccccc2)c2ccccc2)cc1OC   10.68
1  O=C(Nc1cccc(Cl)c1)[C@H]1O[C@@H]1C(=O)N(Cc1ccccc1)c1ccccc1    4.28

Please give the measured TC50 (half toxic concentration for Vero cells) for this compound: `O=C(Nc1cccc(Cl)c1Cl)[C@H]1O[C@@H]1C(=O)N(Cc1ccccc1)c1ccccc1` 1.43

Please give the measured TC50 (half toxic concentration for Vero cells) for this compound: `CCOC(=O)c1csc(NC(=O)[C@H]2O[C@@H]2C(=O)N(Cc2ccc(F)cc2)c2ccc(C(=O)Nc3nc4ccccc4s3)cc2)n1` 1.19

----------
Item-by-item account of melting point

Solved entries (count: 3):
In [3]: df
Out[3]:
                                     smiles             result
0  O=C(Nc1cccc(Cl)c1Cl)[C@H]1O[C@@H]1C(=O)N(Cc1ccccc1)c1ccccc1  115.7 to 115.8 °C
1  O=C(Nc1nc2ccccc2s1)c1ccc(N(Cc2ccc(F)cc2)C(=O)[C@H]2O[C@@H]2C(=O)Nc2cccc(Br)c2)cc1  206.3 to 207.1 °C
2  O=C(Nc1nc2ccccc2s1)c1ccc(N(Cc2ccc(F)cc2)C(=O)[C@H]2O[C@@H]2C(=O)Nc2cccc(F)c2)cc1  202.4 to 203.1 °C

Please give the measured melting point for this compound: `O=C(Nc1nccs1)[C@H]1O[C@@H]1C(=O)N(Cc1ccccc1)c1ccccc1` 146.6 to 147.4 °C

Please give the measured melting point for this compound: `CCOC(=O)c1cnc(NC(=O)[C@H]2O[C@@H]2C(=O)N(Cc2ccc(F)cc2)c2ccc(C(=O)Nc3nc4ccccc4s3)cc2)s1` 218.6 to 219.2 °C

Please give the measured melting point for this compound: `O=C(Nc1nc2ccccc2s1)c1ccc(N(Cc2ccc(F)cc2)C(=O)[C@H]2O[C@@H]2C(=O)Nc2ccc(Cl)cc2)cc1` 198.7 to 199.5 °C

Please give the measured melting point for this compound: `O=C(Nc1ccc(Cl)cc1)[C@H]1O[C@@H]1C(=O)N(Cc1ccccc1)c1ccccc1` 175.2 to 175.8 °C
